- procedure_text: Pharmacokinetic evaluation in mice, oral administration
- Format: in vivo, Balb/c mice
- test_conditions: mouse, in vivo, po, p.o. 5 mg/kg, plasma, not marked single PK (cassette PK), read-out: MRT 0-∞
assay_metric: MRT inf (h)
Respond with the bare value in h.

Q: For C[C@H]1c2c(nn(-c3ccc(F)c(C4CC4)c3)c2-n2ccn(-c3ccc4c(c3)C3(CC3)C(=O)N4C)c2=O)CCN1C(=O)c1cc2cc([C@H]3CCOC(C)(C)C3)ccc2n1[C@@]1(c2noc(=O)[nH]2)C[C@@H]1C , what is its reported MRT inf?
A: 6.7

Q: For Cc1cc(-n2nc3c(c2-n2ccn(-c4ccc5c(cnn5C5CC5)c4F)c2=O)[C@H](C)N(C(=O)c2cc4cc([C@H]5CCOC(C)(C)C5)ccc4n2[C@@]2(c4noc(=O)[nH]4)C[C@@H]2C)CC3)cc(C)c1F , what is its reported MRT inf?
A: 15.2

Q: For [2H]C([2H])(OC1CC1)[C@H]1C[C@]1(c1noc(=O)[nH]1)n1c(C(=O)N2CCc3nn(-c4cc(C)c(F)c(C)c4)c(-n4ccn(-c5ccc6c(cnn6C6CC6)c5F)c4=O)c3[C@@H]2C)cc2cc([C@H]3CCOC(C)(C)C3)ccc21 , what is its reported MRT inf?
A: 26.6

Q: For Cc1cc(-n2nc3c(c2-n2ccn(-c4ccc(CC(=O)N(C)C)cc4F)c2=O)[C@H](C)N(C(=O)c2cc4cc([C@H]5CCOC(C)(C)C5)ccc4n2[C@@]2(c4noc(=O)[nH]4)C[C@@H]2C)CC3)cc(C)c1F , what is its reported MRT inf?
A: 2.8
